# measured_target: Protein lin-28 homolog A (Mus musculus)
# assay_remarks: Binding affinity to mouse N-terminal Halo-fused/biotin-labelled Lin28A expressed in Escherichia coli BL21(DE3) assessed as inhibition of protein interaction with pre-Let-7d microRNA measured after 1 hr by cat-ELCCA
pIC50: −log10 of the molar value.
measured_quantity: pIC50

Solved cases (3 shown):
>>> quantitative_readout("CC(=O)Nc1ccc(S(=O)(=O)Nc2ccccc2NS(=O)(=O)c2ccc(NC(C)=O)cc2)cc1")
4.20
>>> quantitative_readout("Cc1ccc(S(=O)(=O)Nc2ccc(F)cc2NS(=O)(=O)c2ccc(C)cc2)cc1")
5.08
>>> quantitative_readout("Cc1ccc(NS(=O)(=O)c2ccc(Cl)cc2)c(NS(=O)(=O)c2ccc(Cl)cc2)c1")
4.55

I: Cc1ccc(S(=O)(=O)Nc2ccccc2NS(=O)(=O)c2ccc(C)c(Cl)c2)cc1Cl
II: O=S(=O)(Nc1ccccc1NS(=O)(=O)c1ccc(Cl)cc1)c1ccc(F)cc1
III: Cc1ccc(S(=O)(=O)Nc2ccc(F)cc2NS(=O)(=O)c2ccc(C)c(Cl)c2)cc1Cl
IV: COc1ccc(S(=O)(=O)Nc2ccccc2NS(=O)(=O)c2ccc(OC)cc2)cc1
Exam item: // smallest pIC50 at index 0, largest at the end Kindly provide the labels arranged according to the requested ordering.
Marked response: II, IV, III, I
(II: 4.56, IV: 4.78, III: 5.43, I: 5.64)

###

# measured_target: Protein lin-28 homolog A (Mus musculus)
# Sequence (Q8K3Y3 whole entry): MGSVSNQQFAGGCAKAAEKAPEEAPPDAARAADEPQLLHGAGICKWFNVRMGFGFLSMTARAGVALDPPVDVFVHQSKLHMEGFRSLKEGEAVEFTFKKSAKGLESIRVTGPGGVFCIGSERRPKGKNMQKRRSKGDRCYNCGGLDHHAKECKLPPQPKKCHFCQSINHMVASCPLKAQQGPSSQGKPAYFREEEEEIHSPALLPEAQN
# assay_remarks: Binding affinity to mouse N-terminal Halo-fused/biotin-labelled Lin28A expressed in Escherichia coli BL21(DE3) assessed as inhibition of protein interaction with pre-Let-7d microRNA measured after 1 hr by cat-ELCCA
pIC50: −log10 of the molar value.
measured_quantity: pIC50

Solved cases (2 shown):
>>> quantitative_readout("COc1ccc(S(=O)(=O)Nc2ccccc2NS(=O)(=O)c2ccc(F)cc2)cc1")
4.76
>>> quantitative_readout("Cc1ccc(S(=O)(=O)Nc2ccc(C)cc2NS(=O)(=O)c2cccc(C(F)(F)F)c2)cc1")
4.98

a: Cc1ccc(NS(=O)(=O)c2ccccc2)c(NS(=O)(=O)c2ccccc2)c1
b: O=S(=O)(Nc1ccccc1NS(=O)(=O)c1ccc(F)cc1)c1ccccc1
Exam item: Among a and b , whose measured pIC50 is the smaller figure? Pick one and reply with its label.
Marked response: a
(a: 4.54, b: 4.86)

P: O=S(=O)(Nc1ccccc1NS(=O)(=O)c1ccc(Cl)cc1)c1ccc(Cl)cc1
Q: O=S(=O)(Nc1ccccc1NS(=O)(=O)c1cccc(Cl)c1)c1cccc(Cl)c1
R: Cc1ccc(S(=O)(=O)Nc2ccc(C)cc2NS(=O)(=O)c2ccc(F)cc2)cc1
Exam item: // smallest pIC50 at index 0, largest at the end Kindly provide the labels arranged according to the requested ordering.
Marked response: P, R, Q

P: O=S(=O)(Nc1ccccc1NS(=O)(=O)c1ccc(F)cc1)c1ccc(F)cc1
Q: O=S(=O)(Nc1ccccc1NS(=O)(=O)c1ccc(Br)cc1)c1ccc(Br)cc1
Exam item: Endpoint returns the identifier whose pIC50 is numerically larger, either P or Q . Pick one and reply with its label.
Marked response: Q
(Q: 4.76, P: 4.55)

###

# measured_target: UniProtKB Q8K3Y3
# assay_remarks: Binding affinity to mouse N-terminal Halo-fused/biotin-labelled Lin28A expressed in Escherichia coli BL21(DE3) assessed as inhibition of protein interaction with pre-Let-7d microRNA measured after 1 hr by cat-ELCCA
measured_quantity: IC50 (µM)

>>> quantitative_readout("Cc1ccc(NS(=O)(=O)c2ccc(F)cc2)c(NS(=O)(=O)c2ccc(F)cc2)c1")
16.2

I: O=S(=O)(Nc1ccccc1NS(=O)(=O)c1cccc(Br)c1)c1ccc(F)cc1
II: O=S(=O)(Nc1ccccc1NS(=O)(=O)c1cccc(Cl)c1)c1ccc(F)cc1
III: Cc1ccc(NS(=O)(=O)c2cccc(Cl)c2)c(NS(=O)(=O)c2cccc(Cl)c2)c1
IV: O=S(=O)(Nc1ccccc1NS(=O)(=O)c1ccccc1)c1ccccc1
Exam item: // smallest IC50 at index 0, largest at the end Kindly provide the labels arranged according to the requested ordering.
Marked response: III, II, I, IV
(III: 4.3 µM, II: 10.8 µM, I: 16.2 µM, IV: 32.2 µM)
